Target: UniProtKB P50406
Sequence (P50406 whole entry): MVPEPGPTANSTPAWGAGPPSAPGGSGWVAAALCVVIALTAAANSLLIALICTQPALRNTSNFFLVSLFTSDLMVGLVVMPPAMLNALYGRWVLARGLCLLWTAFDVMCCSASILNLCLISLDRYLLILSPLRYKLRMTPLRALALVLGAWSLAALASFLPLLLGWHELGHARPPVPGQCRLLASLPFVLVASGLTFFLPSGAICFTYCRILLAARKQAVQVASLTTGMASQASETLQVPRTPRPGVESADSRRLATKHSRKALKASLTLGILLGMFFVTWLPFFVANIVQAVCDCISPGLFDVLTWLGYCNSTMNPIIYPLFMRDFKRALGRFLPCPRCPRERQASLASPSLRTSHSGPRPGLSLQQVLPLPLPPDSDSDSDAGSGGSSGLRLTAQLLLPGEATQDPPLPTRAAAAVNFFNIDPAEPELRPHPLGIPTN
quantity_measured: Ki

Exam item: Query (compound): O=S(=O)(c1ccc2c(c1)CCNCC2)c1c[nH]c2ccccc12 ; field requested: Ki
Marked response: 0.1 to 1 nM
